- system_tested: Ribosomal protein S6 kinase beta-1 (Homo sapiens);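 also: reported value is the mean inhibition of p70S6K1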
- conditions_used: at 0.1 µM
measure: inhibition

Some solved cases for reference:
substance_smiles	system_tested	inhibition
CCS(=O)(=O)c1ccc(OC)c(Nc2ncc(-c3cccc(-c4ccccc4F)c3)o2)c1	Ribosomal protein S6 kinase beta-1 (Homo sapiens)	0.15%
c1ccc(Oc2ccc(Nc3ncc(-c4ccccc4)o3)cc2)cc1	Ribosomal protein S6 kinase beta-1 (Homo sapiens)	0.11%
O=C(Nc1n[nH]c2nc(-c3ccco3)ccc12)C1CC1	Ribosomal protein S6 kinase beta-1 (Homo sapiens)	1.44%
COc1cc2ncn(-c3cc(OCc4ccccc4C(F)(F)F)c(C(C)=O)s3)c2cc1OC	Ribosomal protein S6 kinase beta-1 (Homo sapiens)	0.79%

From here, focus on the item given below.
IN: Can you look up the measured inhibition of CCN(CC)Cc1ccc(Nc2nccc(-c3cnn4ncccc34)n2)cc1 for me?
OUT: 1.81%

* * *

- system_tested: Mast/stem cell growth factor receptor Kit (Homo sapiens);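 also: values given as mean inhibition of KIT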
- conditions_used: at 1 µM
measure: inhibition (%)
Report the figure in % without appending any unit label.

substance_smiles	units	inhibition
COc1cc(C)c(N(C)C(=O)CN(C)C)cc1Nc1nc(Nc2cccc(F)c2C(N)=O)c2cc[nH]c2n1	%	-0.73
CCS(=O)(=O)c1ccc(OC)c(Nc2ncc(-c3ccccc3Cl)o2)c1	%	85.2
C#Cc1cccc(Nc2ncnc3ccc(OCCCCNCCS(C)(=O)=O)cc23)c1	%	7.12
CN(C)c1ccc2c(c1)/C(=C/Nc1ccc(S(N)(=O)=O)cc1)C(=O)N2	%	28.4
COc1ccc2ncn(-c3cc(O[C@H](C)c4ccccc4Cl)c(C(N)=O)s3)c2c1	%	23.1
CN(C)CCCNc1nccc(-c2c(-c3ccc(F)cc3)nn3cc(C(F)(F)F)ccc23)n1	%	2.1
CN1CCN(CCCNc2nc3ccc(Oc4ccc(NC(=O)Nc5cc(C(F)(F)F)ccc5F)cc4)cc3[nH]2)CC1	%	91.9
NC(=O)c1cc(-c2ccc(F)cc2)cc(-c2ccncc2)c1N	%	46.7

IN: Would you kindly share the measured inhibition for CS(=O)(=O)CCNCc1cc(-c2cc3c(Nc4ccc(OCc5cccc(F)c5)c(Cl)c4)ncnc3s2)cs1 ?
OUT: 8.47

IN: Given the compound CNC(=O)c1cncc(/C=C/c2c(C)cccc2C)c1 , what is its reported inhibition?
OUT: 51.7

IN: Endpoint output: inhibition of C[C@@H](Oc1cc(-n2cnc3ccc(OC4CCN(C)CC4)cc32)sc1C(N)=O)c1ccccc1Cl . Value?
OUT: 5.22

* * *

- system_tested: Fibroblast growth factor receptor 1 (Homo sapiens) (UniProt P11362);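 also: values are reported as mean percent inhibition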
- Sequence (P11362 22-822 limits assumed): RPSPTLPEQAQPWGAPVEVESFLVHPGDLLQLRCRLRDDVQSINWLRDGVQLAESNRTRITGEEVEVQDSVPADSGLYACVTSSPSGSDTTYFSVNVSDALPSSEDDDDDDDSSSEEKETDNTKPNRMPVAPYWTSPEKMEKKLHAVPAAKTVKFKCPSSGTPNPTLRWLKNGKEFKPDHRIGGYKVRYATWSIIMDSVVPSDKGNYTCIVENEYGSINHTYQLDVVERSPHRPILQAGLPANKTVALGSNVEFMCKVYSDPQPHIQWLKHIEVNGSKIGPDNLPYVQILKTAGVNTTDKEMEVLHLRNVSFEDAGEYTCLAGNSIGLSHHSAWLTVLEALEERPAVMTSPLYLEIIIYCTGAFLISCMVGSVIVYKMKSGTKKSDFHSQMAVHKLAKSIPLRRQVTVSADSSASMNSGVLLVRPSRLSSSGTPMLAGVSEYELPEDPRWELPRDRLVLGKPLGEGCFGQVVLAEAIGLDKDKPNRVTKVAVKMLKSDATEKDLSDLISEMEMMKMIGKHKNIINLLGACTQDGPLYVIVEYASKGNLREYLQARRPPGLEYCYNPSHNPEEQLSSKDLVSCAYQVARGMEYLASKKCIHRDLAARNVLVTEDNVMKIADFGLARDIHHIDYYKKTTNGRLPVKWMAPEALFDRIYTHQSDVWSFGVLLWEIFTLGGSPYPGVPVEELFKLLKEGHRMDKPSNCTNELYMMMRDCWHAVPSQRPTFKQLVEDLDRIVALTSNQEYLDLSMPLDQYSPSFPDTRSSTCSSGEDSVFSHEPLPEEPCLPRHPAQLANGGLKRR
- conditions_used: at 0.1 µM
Examples of compounds with documented inhibition follow.
Answer format: numeric, % implied, no suffix.

Example compounds with recorded inhibition:
substance_smiles	units	measured_number
CNC(=O)c1cncc(/C=C/c2c(C)cccc2C)c1	%	-3.96
NC(=O)Cc1ccccc1Oc1nccc(-c2c(-c3ccc(F)cc3)ncn2C2CCNCC2)n1	%	5.6
O=C(NCC1CC1)c1ccc(-c2cccc(C(=O)NC3CC3)c2)cc1	%	2.86

Could you now look at the following compound, please?
IN: What inhibition value was documented for this compound, c1ccc(Oc2ccc(Nc3ncc(-c4ccccc4)o3)cc2)cc1 ?
OUT: -1.76

* * *

This listing pairs compounds with measured inhibition.
- system_tested: Hepatocyte growth factor receptor (Homo sapiens);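 also: each value is an averaged inhibition figure for MET, taken as the mean across measurements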
- conditions_used: at 1 µM
Quick reminder: number only, in %, skip the unit.

Below, 4 compounds whose answers are already recorded.
substance_smiles	measure	units	measured_number
COc1cc2ncn(-c3cc(OCc4ccccc4C(F)(F)F)c(C(C)=O)s3)c2cc1OC	inhibition	%	13.5
O=C(NCC1CC1)c1ccc(-c2cccc(C(=O)NC3CC3)c2)cc1	inhibition	%	-2.79
C[C@@H](Oc1cc(-n2cnc3ccc(OC4CCN(C)CC4)cc32)sc1C(N)=O)c1ccccc1Cl	inhibition	%	5.01
COc1ccc2cc(-c3c(-c4ccncc4)nc(-c4ccc(S(C)(=O)=O)cc4C)n3C)ccc2c1	inhibition	%	4.21

Please turn your attention to the following entry.
IN: Short answer please: inhibition, Hepatocyte growth factor receptor (Homo sapiens), entry CCN(CC)Cc1ccc(Nc2nccc(-c3cnn4ncccc34)n2)cc1
OUT: 10.4
